B1: KRT13 (parent)
chain: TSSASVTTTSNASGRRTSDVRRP

- Variants of: B1
- test: protein stability index of a GFP-peptide fusion (GPS, HEK-293T) (PSI 1-6); higher = more stable;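 further: lentivirally expressed fusions sorted by FACS into six bins by GFP to DsRed ratio, PSI derived from sequencing read proportions per bin multiplied by bin number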
- run conditions: c terminus: native
Could you please report measured protein stability index for the items listed next?

>>> readout_value("R16T")
3.07

// each variant listed below needs its protein stability index
1. T7M
2. S10F

1. 3.08
2. 2.96
